test.settings: Ebola virus entry assay, green fluorescence channel; further: 0% is about no effect
Measured potencies and affinities stand elsewhere. The source made the active and inactive calls. How the calls were made is not given here.
assay.metric: efficacy

# annotated cases, reported efficacy shown
1) O=c1[nH]c(=O)n([C@H]2C[C@H](O)[C@@H](CO)O2)cc1C(F)(F)F    18.2% (inactive)
2) COc1cccc(N(C)C(=S)Oc2ccc3c(c2)CCCC3)n1    84.1% (inactive)
3) COc1ccc(C(=O)N2CCCC2=O)cc1    -13.7% (inactive)

Briefly, efficacy measured for C[C@@H](C1=C(CCN(C)C)Cc2ccccc21)c1ccccn1 : 89% (inactive)

Briefly, efficacy measured for C[C@]12Cc3nonc3C[C@@H]1CC[C@@H]1[C@@H]2CC[C@@]2(C)[C@H]1CC[C@]2(C)O : 48.4% (inactive)

Briefly, efficacy measured for CC(C)NCC(O)c1ccc(N)c(C#N)c1 (configuration not stated) : -19.3% (inactive)

Briefly, efficacy measured for CCCc1nc(C)c2c(=O)[nH]c(-c3cc(S(=O)(=O)N4CCN(CC)CC4)ccc3OCC)nn12 : 25.4% (inactive)

Briefly, efficacy measured for C#C[C@]1(O)CC[C@H]2[C@@H]3CCc4cc(O)ccc4[C@H]3CC[C@@]21C : -19.9% (inactive)

Briefly, efficacy measured for CCc1cccc2c(CCO)c[nH]c12 : -22.1% (inactive)

Briefly, efficacy measured for CCCCCCOC(=O)NC(=N)c1ccc(NCc2nc3cc(C(=O)N(CCC(=O)OCC)c4ccccn4)ccc3n2C)cc1 : 128% (inactive)

Briefly, efficacy measured for CCC(=O)O[C@H]1CC[C@H]2[C@@H]3CCC4=CC(=O)CC[C@]4(C)[C@H]3CC[C@]12C : -42.2% (inactive)

Briefly, efficacy measured for COc1ccc2nc(NC(=O)Nc3ccccc3)sc2c1 : -33.8% (inactive)
